# tested.system: rabbit heart isoproterenol-stimulated adenylate cyclase
# assay.remarks: rabbit heart isoproterenol-stimulated adenylate cyclase
# Format: biochemical
# stated.conditions: Table III; rabbit heart, isoproterenol-stimulated; read-out: Adenylate Cyclase Ki, Heart
Counter-ions that a name gives are not always drawn.
Some compounds, each annotated with its measured pKi.
pKi field: float, defined as -log10 of concentration (mol/L).

Sample records with pKi:
# compound, tested.system, value
measured = [
    ("CC(C)(C)NC[C@H](O)COc1nsnc1N1CCOCC1", "rabbit heart isoproterenol-stimulated adenylate cyclase", 7.80),
    ("CC(C)(C)NCC(O)CON=C1c2ccccc2-c2ccccc21 (centres unmarked) [IPS 339, hydrochloride]", "rabbit heart isoproterenol-stimulated adenylate cyclase", 6.08),
    ("Cc1ccc(C(O)C(C)NC(C)C)cc1 (centres unmarked)", "rabbit heart isoproterenol-stimulated adenylate cyclase", 5.15),
    ("CC(=O)Nc1ccc(OCC(O)CNC(C)C)cc1 (centres unmarked)", "rabbit heart isoproterenol-stimulated adenylate cyclase", 5.17),
]

Now look at this one.
Enter reported pKi observed with rabbit heart isoproterenol-stimulated adenylate cyclase for COc1ccc(OC)c(C(O)C(C)NC(C)(C)C)c1 (centres unmarked)
5.02
